# studyTarget: Neuronal acetylcholine receptor subunit alpha-7 (Homo sapiens, UniProt P36544)
# Sequence (P36544 whole entry): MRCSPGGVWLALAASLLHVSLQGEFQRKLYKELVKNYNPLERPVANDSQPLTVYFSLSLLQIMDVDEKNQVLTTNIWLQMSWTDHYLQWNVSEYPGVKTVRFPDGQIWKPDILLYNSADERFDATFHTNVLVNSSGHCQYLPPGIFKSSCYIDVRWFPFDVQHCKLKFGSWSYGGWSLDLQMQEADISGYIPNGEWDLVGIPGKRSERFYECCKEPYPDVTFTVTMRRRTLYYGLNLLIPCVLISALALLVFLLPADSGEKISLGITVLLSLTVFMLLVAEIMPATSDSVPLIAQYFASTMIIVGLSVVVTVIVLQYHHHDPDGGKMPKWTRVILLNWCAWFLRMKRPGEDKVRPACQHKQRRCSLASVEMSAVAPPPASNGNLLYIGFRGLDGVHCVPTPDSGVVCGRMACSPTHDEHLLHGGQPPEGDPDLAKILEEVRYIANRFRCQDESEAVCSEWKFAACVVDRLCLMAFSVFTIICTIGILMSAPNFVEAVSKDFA
# protocolDetails: Displacement of [125]iodoMLA from alpha-7 nAChR
pKi: −log10 of the molar value.
Please provide measured pKi for the entries that follow.

State pKi (Neuronal acetylcholine receptor subunit alpha-7 (Homo sapiens, UniProt P36544)) of Clc1ccc([C@H]2CC3CCC2[C@@H]3NCc2ccccc2)cn1 (relative stereo) .
< 6.70

State pKi (Neuronal acetylcholine receptor subunit alpha-7 (Homo sapiens, UniProt P36544)) of Cl.N[C@@H]1C2CCC1[C@@H](c1ccc(Cl)nc1)C2 (relative stereo) .
< 6.15

State pKi (Neuronal acetylcholine receptor subunit alpha-7 (Homo sapiens, UniProt P36544)) of Cl.Cl.Cl.N[C@H]1C2CCC1[C@@H](c1ccc(Cl)nc1)C2 (relative stereo) .
< 6.15

State pKi (Neuronal acetylcholine receptor subunit alpha-7 (Homo sapiens, UniProt P36544)) of Clc1ccc([C@H]2CC3CCC2[C@H]3NCc2ccccc2)cn1 (relative stereo) .
< 6.15

State pKi (Neuronal acetylcholine receptor subunit alpha-7 (Homo sapiens, UniProt P36544)) of Cl.Clc1ccc([C@H]2CC3CCC2N3)cn1 (stereo not given in full) [EPIBATIDINE HYDROCHLORIDE] .
6.70
